Tested on: Moraxella catarrhalis RA 21
Assay: checkerboard synergy assay with iclaprim
Assay type: cell-based
Settings: antibiotic in combination with iclaprim; M. catarrhalis RA 21
Positions of bridges follow the written chain, without caps; N, C: chain ends. Non-standard residues stand in square brackets, D forms with d. Residues, ends and D or L forms follow the SMILES beside them. *: point of attachment. Ileψ(thiazoline)Cys = CC[C@H](C)[C@H](N)C1=N[C@H](C(=O)*)CS1; dOrn = NCCC[C@@H](N)C(=O)O
measurement-label: Con (Conclusion)

Examples with answers:
compound	Con (Conclusion)
CC[C@H]1OC(=O)[C@H](C)[C@@H](O[C@H]2C[C@@](C)(OC)[C@@H](O)[C@H](C)O2)[C@H](C)[C@@H](O[C@@H]2O[C@H](C)C[C@H](N(C)C)[C@H]2O)[C@](C)(O)C[C@@H](C)C(=O)[C@H](C)[C@@H](O)[C@]1(C)O	Ind (Indifference (Ind))
CC[C@H](C)[C@H](N)C1=N[C@H](C(=O)N[C@@H](CC(C)C)C(=O)N[C@H](CCC(=O)O)C(=O)N[C@H](C(=O)N[C@H]2CCCCNC(=O)[C@H](CC(N)=O)NC(=O)[C@@H](CC(=O)O)NC(=O)[C@H](Cc3cnc[nH]3)NC(=O)[C@@H](Cc3ccccc3)NC(=O)[C@H]([C@@H](C)CC)NC(=O)[C@@H](CCCN)NC2=O)[C@@H](C)CC)CS1 [Bacitracin] ({Ileψ(thiazoline)Cys}-L[dE]IK[dOrn]I[dF]H[dD]N; lactam 4-C)	Ad (Additivity (Ad))
CC1(C)S[C@@H]2[C@H](NC(=O)Cc3ccccc3)C(=O)N2[C@H]1C(=O)O	Ind (Indifference (Ind))
CCn1cc(C(=O)O)c(=O)c2cc(F)c(N3CCNC(C)C3)c(F)c21 (centres unmarked)	Ad (Additivity (Ad))
C=C(NC(=O)C(=C)NC(=O)c1csc(C2=N[C@@H]3c4csc(n4)[C@H]4NC(=O)c5csc(n5)[C@H]([C@](C)(O)[C@@H](C)O)NC(=O)[C@H]5CSC(=N5)/C(=C/C)NC(=O)[C@H]([C@@H](C)O)NC(=O)c5csc(n5)[C@]3(CC2)NC(=O)[C@H](C)NC(=O)C(=C)NC(=O)[C@H](C)NC(=O)[C@H]([C@@H](C)CC)N[C@@H]2C=Cc3c([C@H](C)O)cc(nc3[C@H]2O)C(=O)O[C@@H]4C)n1)C(N)=O	Ind (Indifference (Ind))

Value of Con (Conclusion) reported for the compound NC[C@H]1O[C@H](O[C@H]2[C@H](O)[C@@H](O[C@H]3O[C@H](CO)[C@@H](O)[C@H](N)[C@H]3O)[C@H](N)C[C@@H]2N)[C@H](N)C[C@@H]1O is Ad (Additivity (Ad))

Value of Con (Conclusion) reported for the compound CCC[C@@H]1C[C@@H](C(=O)N[C@@H]([C@H]2O[C@H](SC)[C@H](O)[C@@H](O)[C@H]2O)[C@H](C)Cl)N(C)C1 is Ind (Indifference (Ind))
